- TARGET_DESC: GPC3 (analyte of Tables 9 and 10) (UniProt P51654 25-559, limits assumed)
- PROTOCOL_DETAILS: SPR (Biacore T200), purified antibody captured through Fc, GPC3 as analyte, 1:1 model
MEASUREMENT_NAME: koff (s⁻¹)
Supply the numeric figure in s⁻¹, leaving out any unit text.

Problem: Name the recorded koff for 9VH1VL3-hIgG1 (antibody, V domains shown, Humanized LAb19309, full-length human IgG1/kappa; also called 9VH1VL3-hIgG1 mAb) VH: QVQLVQSGAEVKKPGASVKVSCKASGYTFTDYEMHWVRQAPGQRLEWMGGIDPETGNTAYSQKFKGRVTITRDTSASTAYMELSSLRSEDTAVYYCARYYSFAYWGQGTLVTVSS VL: DIVMTQSPDSLAVSLGERATINCRSSQTIVHSNGNTYLEWYQQKPGQPPKLLIYKVSNRFSGVPDRFSGSGSGTDFTLTISSLQAEDVAVYYCFQVSHVPYTFGGGTKLEIKR .
Result: 0.00014

Problem: Name the recorded koff for Chimeric LAb19309-hIgG1 (antibody, V domains shown, The mouse VH/VL numbers follow the parallel order of the lists, as for LAb19309) VH: QVQLQQSGAELVRPGASVTLSCKASGYTFTDYEMHWVKQTPVHGLEWIGGIDPETGNTAYSQKFKGKATLTADKSSSTAYMEVRSLTSEDSAVYYCTRYYSFAYWGQGTLVTVSA VL: DVLMTQTPLSLPVNLGDQASISCRSSQTIVHSNGNTYLEWYLQKPGQSPKLLIYKVSNRFSGVPDRFSGSGSGTDFTLRISRVEAEDLGVYYCFQVSHVPYTFGGGTKLEIKR .
Result: 0.000239

Problem: Name the recorded koff for 9VH3VL3-hIgG1 (antibody, V domains shown, Humanized LAb19309, full-length human IgG1/kappa) VH: QVQLVQSGAEVKKPGASVKVSCKASGYTFTDYEMHWVRQATGQGLEWMGGIDPETGNTAYSQKFKGRVTMTRNTSISTAYMELSSLRSEDTAVYYCARYYSFAYWGQGTLVTVSS VL: DIVMTQSPDSLAVSLGERATINCRSSQTIVHSNGNTYLEWYQQKPGQPPKLLIYKVSNRFSGVPDRFSGSGSGTDFTLTISSLQAEDVAVYYCFQVSHVPYTFGGGTKLEIKR .
Result: 0.000145

Where these numbers come from: patent US20230088461A1
